Here, each record is paired with measured Plant response rating, Redroot pigweed data.
- Tested on: pigweed (Amaranthus retroflexus)
- assayProtocol: Test B pre-/postemergence
- Assay type: in vivo
- conditionDetails: Preemergence, Rate 62 g/ha; scale of 0 to 10
Lab note: record just the number, no unit beside it.

>>> valueobserved("CCc1cnc(-n2ccc(C(F)(F)F)n2)nc1C(=O)c1cccc(C(F)(F)F)c1")
8

Query: Which Plant response rating, Redroot pigweed value belongs to CCc1cnc(-n2cnc(C(F)(F)F)c2)nc1C(=O)c1cccc(OC(F)(F)F)c1 ?
Response: 6

Query: Request: Cc1cnc(-c2ccc(C(F)(F)F)cc2)nc1C(=O)c1cccc(OC(F)(F)F)c1
Response: 9

Query: Request: Cc1cnc(-n2ccc(C(F)(F)C(F)(F)F)n2)nc1C(=O)c1cccc(OC(F)(F)F)c1
Response: 8

Query: Request: Cc1cnc(-n2ccc(C(F)(F)F)n2)nc1C(=O)c1cccc(C(F)(F)F)c1
Response: 8

----------
- Test system: cocklebur (Xanthium strumarium)
- assayProtocol: Test B pre-/postemergence
- Format: in vivo
- Parameters: key: 0 is no effect; 10 is complete control
- conditionDetails: Rate 62 g/ha, Preemergence
Here, each record is paired with measured Cocklebur plant response rating data.
Lab note: record just the number, no unit beside it.

A selection of reference data follows.
>>> valueobserved("COC(c1cccc(C(F)(F)F)c1)c1nc(-c2ccc(C(F)(F)F)cc2)ncc1C (racemic)")
0
>>> valueobserved("Cc1cnc(-n2cnc(C(F)(F)F)n2)nc1Cc1cccc(C(F)(F)F)c1")
1
>>> valueobserved("Cc1cnc(-c2ccc(C(F)(F)F)cc2)nc1Cc1cccc(C(F)(F)F)c1")
2

Query: Which Cocklebur plant response rating value belongs to CCc1cnc(-n2ccc(C(F)(F)F)n2)nc1Cc1cccc(C(F)(F)F)c1 ?
Response: 10

----------
- Tested on: cotton (Gossypium hirsutum)
- assayProtocol: Test C
- Format: in vivo
- conditionDetails: PREEMERGENCE, Rate 70 g/ha
readoutKind: Plant response rating, Cotton
Lab note: record just the number, no unit beside it.

A selection of reference data follows.
>>> valueobserved("COc1cnc(-c2ccc(C(F)(F)F)cc2)nc1Cc1cccc(C(F)(F)F)c1")
75
>>> valueobserved("Cc1cnc(-c2ccc(C(F)(F)F)cc2)nc1Cn1ccc(C(F)(F)F)n1")
35
>>> valueobserved("Cc1cnc(-n2ccc(C(F)(F)F)n2)nc1Cc1cccc(C(F)(F)F)c1")
5

# context switch: different compound, same Plant response rating, Cotton
Query: Which Plant response rating, Cotton value belongs to Cc1cnc(-c2ccc(C(F)(F)F)cc2)nc1Cc1cccc(OC(F)(F)F)c1 ?
Response: 10

----------
Here, each record is paired with measured Plant response rating, Rape data.
- Test system: rape (Brassica napus)
- assayProtocol: Test B pre-/postemergence
- Assay type: in vivo
- conditionDetails: Rate 62 g/ha, Postemergence
Lab note: record just the number, no unit beside it.

Query: Plant response rating, Rape of Cc1cnc(-c2ccc(F)c(Cl)c2)nc1Cc1cccc(C#N)c1 on rape (Brassica napus)?
Response: 6

Query: Request: Cc1cnc(-c2ccc(Cl)cc2F)nc1Cc1cccc(C#N)c1
Response: 6

Query: Request: Cc1cnc(-c2ccc(C(F)(F)F)cc2)nc1Cn1nc(C(F)(F)F)cc1C
Response: 6

----------
- Test system: bedstraw (Galium aparine)
- assayProtocol: Test B pre-/postemergence
- Format: in vivo
- conditionDetails: Rate 62 g/ha, Preemergence
Here, each record is paired with measured Bedstraw plant response rating data.

Query: Which Bedstraw plant response rating value belongs to Cc1cnc(-c2ccc(F)c(Cl)c2)nc1Cc1cccc(C(F)(F)F)c1 ?
Response: 1

Query: Request: Cc1cnc(-n2ccc(C(F)(F)F)n2)nc1Cc1cccc(C(F)(F)F)c1
Response: 10

Query: Request: Cc1cnc(-c2ccc(Cl)cc2F)nc1Cc1cccc(C#N)c1
Response: 0

Query: Request: Cc1cnc(-c2ccc(Cl)cc2)nc1Cc1cccc(C#N)c1
Response: 0

----------
- System: giant foxtail (Setaria faberii)
- assayProtocol: Test B pre-/postemergence
- Format: in vivo
- conditionDetails: Rate 125 g/ha, Postemergence
Please use Satisfied whenever Giant foxtail plant response rating is not below 4, and Not satisfied whenever it is.

Check out these entries, answers already filled in.
>>> classname("O=C(c1cccc(C(F)(F)F)c1)c1ccnc(-c2ccc(C(F)(F)F)cc2)n1")
"Not satisfied"
>>> classname("Cc1cnc(-c2ccc(Cl)cc2)nc1Cc1cccc(C#N)c1")
"Not satisfied"
>>> classname("Cc1cnc(-n2ccc(C(F)(F)F)n2)nc1C(=O)c1cccc(C(F)(F)F)c1")
"Satisfied"

Query: Would you say Cc1cnc(-n2ccc(C(F)(F)F)n2)nc1C(=O)c1ccc(C(F)(F)F)cc1 shows Giant foxtail plant response rating at minimum 4?
Response: Not satisfied

Query: Request: CCc1cnc(-n2ccc(C(F)(F)F)n2)nc1C(=O)c1cccc(C(F)(F)F)c1
Response: Not satisfied

Query: Request: Cc1cnc(-n2ccc(C(F)(F)C(F)(F)F)n2)nc1C(=O)c1cccc(C(F)(F)F)c1
Response: Not satisfied

Query: Request: Cc1cnc(-n2cnc(C(F)(F)F)n2)nc1Cn1ccc(C(F)(F)F)n1
Response: Satisfied

Query: Request: COc1cnc(-n2ccc(C(F)(F)F)n2)nc1C(=O)c1cccc(C(F)(F)F)c1
Response: Not satisfied

Query: Request: Cc1cnc(-n2cnc(C(F)(F)F)n2)nc1C(=O)c1cccc(C(F)(F)F)c1
Response: Satisfied

----------
Here, each record is paired with measured Crabgrass plant response rating data.
- Tested on: crabgrass (Digitaria sanguinalis)
- assayProtocol: Test B pre-/postemergence
- Format: in vivo
- Set-up: key: 0 is no effect; 10 is complete control
- conditionDetails: Rate 125 g/ha, Preemergence

A selection of reference data follows.
>>> valueobserved("Cc1cnc(-n2cnc(C(F)(F)F)n2)nc1Cc1cccc(C(F)(F)F)c1 [Compound 43]")
10
>>> valueobserved("Cc1cnc(-c2ccccc2F)nc1Cc1cccc(C#N)c1 [Compound 37]")
0
>>> valueobserved("COC(c1cccc(C(F)(F)F)c1)c1nc(-c2ccc(C(F)(F)F)cc2)ncc1C (racemic) [Compound 20]")
1

Query: Which Crabgrass plant response rating value belongs to Cc1cnc(-c2ccc(C(F)(F)F)cc2)nc1Cn1ccc(C(F)(F)C(F)(F)F)n1 [Compound 14] ?
Response: 1

----------
- System: cocklebur (Xanthium strumarium)
- assayProtocol: Test B pre-/postemergence
- Assay type: in vivo
- conditionDetails: Rate 62 g/ha, Postemergence
readoutKind: Cocklebur plant response rating
Lab note: record just the number, no unit beside it.

A selection of reference data follows.
>>> valueobserved("Cc1cnc(-c2ccc(C(F)(F)F)cc2)nc1Cn1cc(Br)cn1")
3
>>> valueobserved("O=C(c1cccc(C(F)(F)F)c1)c1ccnc(-c2ccc(F)cc2F)n1")
1
>>> valueobserved("Cc1cnc(-n2cnc(C(F)(F)F)c2)nc1C(=O)c1cccc(OC(F)(F)F)c1")
1
>>> valueobserved("CCc1cnc(-n2ccc(C(F)(F)F)n2)nc1C(=O)c1cccc(C#N)c1")
3

# context switch: different molecule, same Cocklebur plant response rating
Query: Which Cocklebur plant response rating value belongs to CCc1cnc(-n2ccc(C(F)(F)F)n2)nc1C(=O)c1cccc(C(F)(F)F)c1 ?
Response: 8

----------
- System: rice (Oryza sativa)
- assayProtocol: Test B flood test
- Format: in vivo
- conditionDetails: Rate 125 g/ha, Postemergence, flood test
readoutKind: Plant response rating, Rice
Lab note: record just the number, no unit beside it.

>>> valueobserved("Cc1cnc(-c2ccc(C(F)(F)F)cc2)nc1C(C#N)c1cccc(C(F)(F)F)c1 (racemic)")
4

Query: Which Plant response rating, Rice value belongs to Cc1cnc(-c2ccc(C(F)(F)F)cc2)nc1Cn1nc(C(F)(F)F)cc1C ?
Response: 0

Query: Request: Cc1cnc(-c2ccc(C(F)(F)F)cc2)nc1Cc1cccc(OC(F)(F)F)c1
Response: 7

----------
- Tested on: corn (Zea mays)
- assayProtocol: Test B pre-/postemergence
- Assay type: in vivo
- conditionDetails: Rate 250 g/ha, Postemergence (so in the source)
readoutKind: Plant response rating, Corn
Lab note: record just the number, no unit beside it.

A selection of reference data follows.
>>> valueobserved("CCc1cnc(-n2cnc(C(F)(F)F)c2)nc1Cc1cccc(OC(F)(F)F)c1")
1
>>> valueobserved("Cc1cnc(-c2ccc(F)cc2F)nc1Cc1cccc(C(F)(F)F)c1")
1

# context switch: different molecule, same Plant response rating, Corn
Query: Which Plant response rating, Corn value belongs to Cc1cnc(-c2ccc(Cl)cc2F)nc1Cc1cccc(C(F)(F)F)c1 ?
Response: 0

----------
- System: broadleaf signalgrass (Brachiaria decumbens)
- assayProtocol: Test B pre-/postemergence
- Format: in vivo
- conditionDetails: Rate 62 g/ha, Preemergence
Here, each record is paired with measured B. signalgrass plant response rating data.
Lab note: record just the number, no unit beside it.

Query: Which B. signalgrass plant response rating value belongs to Cc1cnc(-n2cnc(C(F)(F)F)n2)nc1Cn1ccc(C(F)(F)F)n1 ?
Response: 4

Query: Request: Cc1cnc(-c2ccc(C(F)(F)F)cc2)nc1Cn1cc(Br)cn1
Response: 0

Query: Request: Cc1cnc(-c2ccc(F)cc2F)nc1Cc1cccc(C#N)c1
Response: 0

Query: Request: Cc1cnc(-c2ccc(C(F)(F)F)cc2)nc1C(=O)c1ccc(C(F)(F)F)cc1
Response: 0

Query: Request: CCc1cnc(-n2ccc(C(F)(F)F)n2)nc1C(=O)c1cccc(C#N)c1
Response: 1
